# SYSTEM: human CD33 P319A (human, UniProt P20138 18-364)
# Sequence (P20138 18-364 P319A limits assumed): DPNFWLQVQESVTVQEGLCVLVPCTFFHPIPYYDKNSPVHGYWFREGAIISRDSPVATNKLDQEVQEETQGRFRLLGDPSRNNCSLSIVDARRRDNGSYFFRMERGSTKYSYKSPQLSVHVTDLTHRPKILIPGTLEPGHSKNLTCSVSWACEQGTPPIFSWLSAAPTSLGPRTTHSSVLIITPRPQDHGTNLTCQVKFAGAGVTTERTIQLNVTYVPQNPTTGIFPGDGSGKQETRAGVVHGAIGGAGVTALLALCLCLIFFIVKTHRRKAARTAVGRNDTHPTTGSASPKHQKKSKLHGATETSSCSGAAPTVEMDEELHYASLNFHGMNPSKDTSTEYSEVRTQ
# METHOD_SUMMARY: flow cytometry, alanine scan
PROPERTY: Mean % WT Binding

[[record]]
binder = "Refmab #3 (antibody, V domains shown, The alanine scan used IgG or Fab) VH: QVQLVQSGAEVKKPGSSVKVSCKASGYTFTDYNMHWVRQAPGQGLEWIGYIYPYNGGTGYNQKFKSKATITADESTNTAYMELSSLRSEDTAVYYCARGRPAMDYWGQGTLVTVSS VL: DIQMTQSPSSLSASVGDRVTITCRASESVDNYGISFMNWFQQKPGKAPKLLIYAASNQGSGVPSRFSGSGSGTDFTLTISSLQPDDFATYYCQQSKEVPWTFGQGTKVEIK"
property = "Mean % WT Binding"
observed = "76.4 % of WT"

[[record]]
binder = "Refmab #4 (antibody, V domains shown, The alanine scan used IgG or Fab) VH: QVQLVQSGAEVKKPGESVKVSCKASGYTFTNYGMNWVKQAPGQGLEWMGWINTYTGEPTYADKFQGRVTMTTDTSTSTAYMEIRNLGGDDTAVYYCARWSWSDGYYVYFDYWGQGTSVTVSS VL: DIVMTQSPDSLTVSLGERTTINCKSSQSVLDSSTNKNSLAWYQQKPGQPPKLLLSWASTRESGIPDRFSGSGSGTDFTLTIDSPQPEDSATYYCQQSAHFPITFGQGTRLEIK"
property = "Mean % WT Binding"
observed = "97 % of WT"

[[record]]
binder = "Refmab #2 (antibody, V domains shown, The alanine scan used IgG or Fab) VH: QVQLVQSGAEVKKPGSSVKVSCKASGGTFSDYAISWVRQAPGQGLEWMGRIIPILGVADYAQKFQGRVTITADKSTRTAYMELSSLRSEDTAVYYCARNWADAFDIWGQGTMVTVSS VL: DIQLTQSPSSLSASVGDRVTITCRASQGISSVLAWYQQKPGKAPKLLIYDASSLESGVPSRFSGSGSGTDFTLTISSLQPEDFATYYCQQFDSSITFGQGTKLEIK"
property = "Mean % WT Binding"
observed = "100 % of WT"

